molecular target: β-secretase (BACE) (Homo sapiens, UniProt P56817); construct: purchased Panvera; experiment: in vitro BACE FS1 % Inhibition Assay (Example 13); assay type: biochemical; conditions: read-out: % Inhibition (Example 13) @ 0.3 μM; 0.3 μM compound; FS1 substrate; pH 5
Sequence (P56817 46-501): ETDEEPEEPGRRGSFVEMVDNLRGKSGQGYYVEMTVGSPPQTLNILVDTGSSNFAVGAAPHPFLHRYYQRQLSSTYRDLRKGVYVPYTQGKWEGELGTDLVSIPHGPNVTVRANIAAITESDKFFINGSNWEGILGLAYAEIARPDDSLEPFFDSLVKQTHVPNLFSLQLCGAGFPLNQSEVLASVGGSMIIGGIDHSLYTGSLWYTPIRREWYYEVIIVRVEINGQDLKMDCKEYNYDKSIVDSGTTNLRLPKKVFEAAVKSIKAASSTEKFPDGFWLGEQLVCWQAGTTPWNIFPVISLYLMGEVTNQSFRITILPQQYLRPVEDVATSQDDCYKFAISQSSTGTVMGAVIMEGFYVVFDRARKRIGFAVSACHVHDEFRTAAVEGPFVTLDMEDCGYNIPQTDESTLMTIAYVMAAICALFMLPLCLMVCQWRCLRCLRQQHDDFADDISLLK
So basically: inhibition at 0.3 µM at 40% or higher? That is T. Lower than 40%? That is F.

[in] // inclusive: inhibition at 0.3 µM at least 40%? input: "CC(C)[C@@H]1CCC(=O)N(CCCO)CCc2cccc(c2)Oc2ccc3c(c2)CN1C(N)=N3"
[out] T

[in] // inclusive: inhibition at 0.3 µM at least 40%? input: "CC(C)[C@@H]1CCC(=O)N([C@H]2CC[C@H](C(=O)O)CC2)CCc2cccc(c2)Oc2ccc3c(c2)CN1C(N)=N3"
[out] F

[in] // inclusive: inhibition at 0.3 µM at least 40%? input: "NC1=Nc2ccc3cc2CN1[C@@H](C1CCCCC1)CCCN(C1CCCCC1)CCCc1cccc(c1)O3"
[out] F

[in] // inclusive: inhibition at 0.3 µM at least 40%? input: "NC1=Nc2ccc3cc2CN1[C@H](C1CCCCC1)CCC(=O)N([C@H]1CC[C@@H](C(=O)O)CC1)CCc1cccc(c1)O3"
[out] T

[in] // inclusive: inhibition at 0.3 µM at least 40%? input: "COc1cc2c3cc1Oc1cccc(c1)CCN(C1CCCCC1)C(=O)CC[C@@H](C1CCCCC1)N(C3)C(N)=N2"
[out] T

[in] // inclusive: inhibition at 0.3 µM at least 40%? input: "NC1=Nc2cc(F)c3cc2CN1[C@H](C1CCCCC1)CCC(=O)N(C1CCCCC1)CCc1cccc(c1)O3"
[out] T

[in] // inclusive: inhibition at 0.3 µM at least 40%? input: CCOC(=O)C1CCC(N2CCc3cccc(c3)Oc3ccc4c(c3)CN(C(N)=N4)C(C(C)C)CCC2=O)CC1 (centres unmarked)
[out] F

[in] // inclusive: inhibition at 0.3 µM at least 40%? input: "NC1=Nc2ccc3cc2CN1CCCCC(=O)N(C1CCCCC1)CCCc1cccc(c1)O3"
[out] T

[in] // inclusive: inhibition at 0.3 µM at least 40%? input: "CC(C)[C@@H]1CCC(=O)N([C@H]2CC[C@@H](C(=O)O)CC2)CCc2cccc(c2)Oc2ccc3c(c2)CN1C(N)=N3"
[out] T

[in] // inclusive: inhibition at 0.3 µM at least 40%? input: "NC1=Nc2ccc3cc2CN1CCNC(=O)CCC/C=C/c1ccccc1-3"
[out] F

[in] // inclusive: inhibition at 0.3 µM at least 40%? input: "CC(C)[C@@H]1CCC(=O)N(C2CCCCC2)CCOc2cccc(c2)Oc2ccc3c(c2)CN1C(N)=N3"
[out] T

---

Kindly supply the reported Ki values for the records listed here.
molecular target: β-secretase (BACE) (Homo sapiens, UniProt P56817); construct: purchased Panvera; test: in vitro BACE Assay, Ki (Example 14); format: biochemical; conditions: read-out: (Example 14) Ki; FS1 substrate 50 μM, Km 24 μM; pH 5
Give just the numeric value; nM need not be written.

Recorded Ki (molecule "NC1=Nc2ccc3cc2CN1[C@H](C1CCOCC1)CCC(=O)NCCc1cccc(c1)O3" ): 100

Recorded Ki (molecule "CC(C)[C@@H]1CCC(=O)N(C2CCOCC2)CCc2cccc(c2)Oc2ccc3c(c2)CN1C(N)=N3" ): 22

---

Kindly supply the reported inhibition at 1 µM values for the records listed here.
target: β-secretase (BACE) (Homo sapiens, UniProt P56817); construct: purchased Panvera; assay: in vitro BACE FS1 % Inhibition Assay (Example 13); assay type: biochemical; details: read-out: % Inhibition (Example 13) @ 1 μM; 1 μM compound; FS1 substrate; pH 5
Give just the numeric value; % need not be written.

Recorded inhibition at 1 µM (compound CC(C)[C@@H]1CCC(=O)N(C2CCCCC2)CCOc2cccc(c2)Oc2ccc3c(c2)CN1C(N)=N3 [Compound 27] ): 117

Recorded inhibition at 1 µM (compound NC1=Nc2ccc3cc2CN1[C@@H](C1CCCCC1)CCCN(C1CCCCC1)CCCc1cccc(c1)O3 [Compound 19] ): 55

Recorded inhibition at 1 µM (compound CCOC(=O)C1CCC(N2CCc3cccc(c3)Oc3ccc4c(c3)CN(C(N)=N4)C(C(C)C)CCC2=O)CC1 (stereo not shown) [Compound 22] ): 48

Recorded inhibition at 1 µM (compound CC(C)[C@@H]1CCC(=O)N(CCCO)CCc2cccc(c2)Oc2ccc3c(c2)CN1C(N)=N3 [Compound 25] ): 99

Recorded inhibition at 1 µM (compound NC1=Nc2ccc3cc2CN1[C@H](C1CCCCC1)CCC(=O)N([C@H]1CC[C@@H](C(=O)O)CC1)CCc1cccc(c1)O3 [Compound 29] ): 116

Recorded inhibition at 1 µM (compound NC1=Nc2ccc3cc2CN1CCNC(=O)CCC/C=C/c1ccccc1-3 [Compound 11] ): 23

Recorded inhibition at 1 µM (compound COc1cc2c3cc1Oc1cccc(c1)CCN(C1CCCCC1)C(=O)CC[C@@H](C1CCCCC1)N(C3)C(N)=N2 [Compound 18] ): 107

---

biological target: β-secretase (BACE) (Homo sapiens, UniProt P56817); construct: purchased Panvera; assay: in vitro BACE FS1 % Inhibition Assay (Example 13); type: biochemical; details: 1 μM compound; FS1 substrate; pH 5
Kindly supply the reported % Inhibition (Example 13) @ 1 μM values for the records listed here.
Give just the numeric value; % need not be written.

Recorded % Inhibition (Example 13) @ 1 μM (compound NC1=Nc2ccc3cc2CN1CCN(C1CCCCC1)C(=O)CCc1cccc(c1)O3 [Compound 15] ): −31

Recorded % Inhibition (Example 13) @ 1 μM (compound CCOC(=O)C1CCC(N2CCc3cccc(c3)Oc3ccc4c(c3)CN(C(N)=N4)[C@H](C(C)C)CCC2=O)CC1 (stereo partly shown) [Compound 28] ): 59

Recorded % Inhibition (Example 13) @ 1 μM (compound CC(C)[C@@H]1CCC(=O)Nc2ccc3ccc(cc3c2)Oc2ccc3c(c2)CN1C(N)=N3 [Compound 31] ): 16

Recorded % Inhibition (Example 13) @ 1 μM (compound CC(C)[C@@H]1CC(=O)N(C2CCCCC2)CCCc2cccc(c2)Oc2ccc3c(c2)CN1C(N)=N3 [Compound 3] ): 7

Recorded % Inhibition (Example 13) @ 1 μM (compound CC(C)[C@H]1CC(=O)N(C2CCCCC2)CCCc2cccc(c2)Oc2ccc3c(c2)CN1C(N)=N3 [Compound 5] ): −6

Recorded % Inhibition (Example 13) @ 1 μM (compound NC1=Nc2ccc3cc2CN1CCCNC(=O)Cc1cccc(c1)O3 [Compound 12] ): −0.4

Recorded % Inhibition (Example 13) @ 1 μM (compound NC1=Nc2ccc3cc2CN1[C@H](C1CCOCC1)CCC(=O)NCCc1cccc(c1)O3 [Compound 21] ): 88

Recorded % Inhibition (Example 13) @ 1 μM (compound NC1=Nc2ccc3cc2CN1CCN(C(=O)C1CCCCC1)CCCc1cccc(c1)O3 [Compound 10] ): 5

Recorded % Inhibition (Example 13) @ 1 μM (compound NC1=Nc2ccc3cc2CN1[C@@H](C1CCCCC1)CNC(=O)CCc1cccc(c1)O3 [Compound 16] ): 37

Recorded % Inhibition (Example 13) @ 1 μM (compound CC(C)C1CCC(=O)N(C2CCC(O)CC2)CCc2cccc(c2)Oc2ccc3c(c2)CN1C(N)=N3 (stereo not shown) [Compound 26] ): 23

---

molecular target: β-secretase (BACE) (Homo sapiens); construct: purchased Panvera; experiment: in vitro BACE Assay, Ki (Example 14); format: biochemical
quantity: Ki
Quick note: number first, unit second.

Recorded Ki (compound "CC(C)[C@@H]1CCC(=O)N([C@H]2CC[C@@H](C(=O)O)CC2)CCc2cccc(c2)Oc2ccc3c(c2)CN1C(N)=N3" ): 13 nM

Recorded Ki (compound "CC(C)[C@@H]1CCC(=O)N([C@H]2CC[C@H](C(=O)O)CC2)CCc2cccc(c2)Oc2ccc3c(c2)CN1C(N)=N3" ): 420 nM

Recorded Ki (compound "CC(C)[C@@H]1CCC(=O)N(C2CCCCC2)CCOc2cccc(c2)Oc2ccc3c(c2)CN1C(N)=N3" ): 11 nM

Recorded Ki (compound CCOC(=O)C1CCC(N2CCc3cccc(c3)Oc3ccc4c(c3)CN(C(N)=N4)C(C(C)C)CCC2=O)CC1 (stereo not shown) ): 750 nM

---

Kindly supply the reported % Inhibition (Example 13) @ 3 μM values for the records listed here.
biological target: β-secretase (BACE) (Homo sapiens); construct: purchased Panvera; assay: in vitro BACE FS1 % Inhibition Assay (Example 13); format: biochemical; settings: 3 μM compound; FS1 substrate; pH 5
Quick note: number first, unit second.

Recorded % Inhibition (Example 13) @ 3 μM (compound "NC1=Nc2ccc3cc2CN1CCN(C(=O)C1CCCCC1)CCCc1cccc(c1)O3" ): 7%

Recorded % Inhibition (Example 13) @ 3 μM (compound "CC(C)[C@@H]1CCC(=O)Nc2ccc3ccc(cc3c2)Oc2ccc3c(c2)CN1C(N)=N3" ): −15%

Recorded % Inhibition (Example 13) @ 3 μM (compound CC(C)C1CCC(=O)N(C2CCC(O)CC2)CCc2cccc(c2)Oc2ccc3c(c2)CN1C(N)=N3 (stereo not shown) ): 58%

Recorded % Inhibition (Example 13) @ 3 μM (compound CCOC(=O)C1CCC(N2CCc3cccc(c3)Oc3ccc4c(c3)CN(C(N)=N4)[C@H](C(C)C)CCC2=O)CC1 (stereo partly shown) ): 110%

Recorded % Inhibition (Example 13) @ 3 μM (compound "NC1=Nc2ccc3cc2CN1[C@H](C1CCOCC1)CCC(=O)NCCc1cccc(c1)O3" ): 110%

Recorded % Inhibition (Example 13) @ 3 μM (compound "CC(C)[C@H]1CC(=O)N(C2CCCCC2)CCCc2cccc(c2)Oc2ccc3c(c2)CN1C(N)=N3" ): 43%

Recorded % Inhibition (Example 13) @ 3 μM (compound "NC1=Nc2ccc3cc2CN1[C@@H](C1CCCCC1)CNC(=O)CCc1cccc(c1)O3" ): 61%

Recorded % Inhibition (Example 13) @ 3 μM (compound "NC1=Nc2ccc3cc2CN1CCN(C1CCCCC1)C(=O)CCc1cccc(c1)O3" ): 10%

Recorded % Inhibition (Example 13) @ 3 μM (compound "NC1=Nc2ccc3cc2CN1CCCNC(=O)Cc1cccc(c1)O3" ): 11%

Recorded % Inhibition (Example 13) @ 3 μM (compound "CC(C)[C@@H]1CC(=O)N(C2CCCCC2)CCCc2cccc(c2)Oc2ccc3c(c2)CN1C(N)=N3" ): 29%
